Where do these numbers come from? They come from patent US20090148907A1.

target: fructofuranosidase of S. occidentalis (enzymatic concentrate F-1) (Schwanniomyces occidentalis); construct: the enzyme object of the invention is extracellularly released; endogenous in cells; host or cells: Schwanniomyces occidentalis (ATCC26077 named) grown in lactose medium; the cell-free supernatant was concentrated by 30 kDa tangential filtration and dialysed; test: Transfructosidase (transglycosylation) activity of enzymatic concentrate F-1 on sucrose, HPLC; format: biochemical; conditions: reaction time 1 h; F1 5 U/ml, 50° C., pH 5.6
reported_property: Composition of the reaction mixture

Consider the following illustrative entries.
compound | Composition of the reaction mixture
OC[C@H]1O[C@@](CO)(O[C@H]2O[C@H](CO)[C@@H](O)[C@H](O)[C@H]2O)[C@@H](O)[C@@H]1O [sucrose, α-D-Glu-(1→2)-β-D-Fru] | 487.3 grams/liter
OC[C@H]1O[C@@](CO)(OC[C@H]2O[C@@](CO)(O[C@H]3O[C@H](CO)[C@@H](O)[C@H](O)[C@H]3O)[C@@H](O)[C@@H]2O)[C@@H](O)[C@@H]1O [6-kestose, β-D-Fru-(2→6)-β-D-Fru-(2→1)-α-D-Glu] | 5.4 grams/liter
OC[C@H]1O[C@@](CO)(OC[C@@]2(O[C@H]3O[C@H](CO)[C@@H](O)[C@H](O)[C@H]3O)O[C@H](CO)[C@@H](O)[C@@H]2O)[C@@H](O)[C@@H]1O [1-kestose, β-D-Fru-(2→1)-β-D-Fru-(2→1)-α-D-Glu] | 2.8 grams/liter

Now look at this one.
stdin: So what's the measured Composition of the reaction mixture for this one? O=C(CO)[C@@H](O)[C@H](O)[C@H](O)CO [fructose]
stdout: 5.3 grams/liter

---

Biological target: Fructofuranosidase activity of the extracellular fraction of S. occidentalis (Schwanniomyces occidentalis, UniProt P24133)
Construct: the enzyme object of the invention is extracellularly released; endogenous in cells; host or cells: Schwanniomyces occidentalis (ATCC26077 named) grown in lactose medium; the cell-free supernatant was concentrated by 30 kDa tangential filtration and dialysed
Sequence (P24133 other isoform, or with tags, fused parts or gaps with the stated changes): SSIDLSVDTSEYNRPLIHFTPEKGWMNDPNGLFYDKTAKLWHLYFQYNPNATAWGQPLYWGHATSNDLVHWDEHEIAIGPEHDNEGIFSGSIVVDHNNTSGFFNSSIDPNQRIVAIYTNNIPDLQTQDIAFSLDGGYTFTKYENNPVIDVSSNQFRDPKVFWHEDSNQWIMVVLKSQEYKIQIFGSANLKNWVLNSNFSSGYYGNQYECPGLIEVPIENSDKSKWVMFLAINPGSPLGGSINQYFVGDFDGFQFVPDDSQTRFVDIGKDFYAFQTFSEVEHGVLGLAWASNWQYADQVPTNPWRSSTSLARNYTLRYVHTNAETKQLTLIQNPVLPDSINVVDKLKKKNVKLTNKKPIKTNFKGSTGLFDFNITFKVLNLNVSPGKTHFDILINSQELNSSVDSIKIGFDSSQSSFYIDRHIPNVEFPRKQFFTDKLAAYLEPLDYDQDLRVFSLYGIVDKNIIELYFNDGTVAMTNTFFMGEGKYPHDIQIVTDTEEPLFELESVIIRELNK
Experiment: Fructofuranosidase activity of the extracellular fraction on different carbohydrates (glucose release, glucose oxidase-peroxidase)
Format: biochemical
Conditions: extracellular fraction concentrated (30 kDa filter) and dialysed; activity on the named substrate
Protocol: The cell free fraction was obtained by centrifugation (F-0) of a culture of S. occidentalis ATCC26077 grown at 29° C. and 235 rpm. Fructofuranosidase activity was assayed in the latter, determining the glucose release on different substrates. […] It was incubated for 30 minutes at 37° C. and spectrophotometrically quantified at 450 nm. […] The fructofuranosidase activity unit is defined in μmol/ml min of glucose determined in the described conditions. […]
Specific activity listing for selected compounds.
Form entry: value (mU/μg) — number only.

stdin: So what's the measured Specific activity for this one? OC[C@H]1O[C@@](CO)(OC[C@@]2(O[C@H]3O[C@H](CO)[C@@H](O)[C@H](O)[C@H]3O)O[C@H](CO)[C@@H](O)[C@@H]2O)[C@@H](O)[C@@H]1O
stdout: 2.2

stdin: So what's the measured Specific activity for this one? OC[C@H]1O[C@H](OC[C@H]2O[C@H](O[C@]3(CO)O[C@H](CO)[C@@H](O)[C@@H]3O)[C@H](O)[C@@H](O)[C@@H]2O)[C@H](O)[C@@H](O)[C@H]1O
stdout: 0.2

stdin: So what's the measured Specific activity for this one? OC[C@H]1O[C@@](CO)(OC[C@@]2(OC[C@@]3(O[C@H]4O[C@H](CO)[C@@H](O)[C@H](O)[C@H]4O)O[C@H](CO)[C@@H](O)[C@@H]3O)O[C@H](CO)[C@@H](O)[C@@H]2O)[C@@H](O)[C@@H]1O
stdout: 0.6

stdin: So what's the measured Specific activity for this one? OC[C@H]1O[C@@](CO)(O[C@H]2O[C@H](CO)[C@@H](O)[C@H](O)[C@H]2O)[C@@H](O)[C@@H]1O
stdout: 24
